B1: scFv; the commonest letter at each place (parent)
chain 1: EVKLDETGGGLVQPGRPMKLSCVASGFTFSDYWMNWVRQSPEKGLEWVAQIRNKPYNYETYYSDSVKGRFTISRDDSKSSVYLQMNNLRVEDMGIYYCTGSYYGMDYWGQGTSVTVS
chain 2: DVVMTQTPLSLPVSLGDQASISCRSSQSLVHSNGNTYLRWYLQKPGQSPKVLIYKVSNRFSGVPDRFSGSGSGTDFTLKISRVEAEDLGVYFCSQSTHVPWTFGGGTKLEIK

Variants of: B1
Assay: Kd (Tite-Seq)
Conditions: with fluorescein; format: scFv 4-4-20, heavy + light
pKd: −log10 of the molar value.
pKd listing for selected variants.

Example cases with answers are listed next.
>>> val("chain 1 Y103L")
8.15
>>> val("chain 1 S101M G104W")
"≤ 5.00"
>>> val("chain 1 Y107N W108D G109C")
"≤ 5.00"

Could you tell me which pKd is on file for chain 1 Y102Q M105I ?
5.07

Also check chain 1 S30A N35Y
≤ 5.00

Also check chain 1 T28N V37A
7.14
